Provide the recorded EC50 for the entries that follow.
# Assay Target: Voltage-dependent T-type calcium channel subunit alpha-1H (Homo sapiens, UniProt O95180);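 also: channel activity triggered by adding a high calcium stimulation buffer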
# Sequence (O95180 whole entry): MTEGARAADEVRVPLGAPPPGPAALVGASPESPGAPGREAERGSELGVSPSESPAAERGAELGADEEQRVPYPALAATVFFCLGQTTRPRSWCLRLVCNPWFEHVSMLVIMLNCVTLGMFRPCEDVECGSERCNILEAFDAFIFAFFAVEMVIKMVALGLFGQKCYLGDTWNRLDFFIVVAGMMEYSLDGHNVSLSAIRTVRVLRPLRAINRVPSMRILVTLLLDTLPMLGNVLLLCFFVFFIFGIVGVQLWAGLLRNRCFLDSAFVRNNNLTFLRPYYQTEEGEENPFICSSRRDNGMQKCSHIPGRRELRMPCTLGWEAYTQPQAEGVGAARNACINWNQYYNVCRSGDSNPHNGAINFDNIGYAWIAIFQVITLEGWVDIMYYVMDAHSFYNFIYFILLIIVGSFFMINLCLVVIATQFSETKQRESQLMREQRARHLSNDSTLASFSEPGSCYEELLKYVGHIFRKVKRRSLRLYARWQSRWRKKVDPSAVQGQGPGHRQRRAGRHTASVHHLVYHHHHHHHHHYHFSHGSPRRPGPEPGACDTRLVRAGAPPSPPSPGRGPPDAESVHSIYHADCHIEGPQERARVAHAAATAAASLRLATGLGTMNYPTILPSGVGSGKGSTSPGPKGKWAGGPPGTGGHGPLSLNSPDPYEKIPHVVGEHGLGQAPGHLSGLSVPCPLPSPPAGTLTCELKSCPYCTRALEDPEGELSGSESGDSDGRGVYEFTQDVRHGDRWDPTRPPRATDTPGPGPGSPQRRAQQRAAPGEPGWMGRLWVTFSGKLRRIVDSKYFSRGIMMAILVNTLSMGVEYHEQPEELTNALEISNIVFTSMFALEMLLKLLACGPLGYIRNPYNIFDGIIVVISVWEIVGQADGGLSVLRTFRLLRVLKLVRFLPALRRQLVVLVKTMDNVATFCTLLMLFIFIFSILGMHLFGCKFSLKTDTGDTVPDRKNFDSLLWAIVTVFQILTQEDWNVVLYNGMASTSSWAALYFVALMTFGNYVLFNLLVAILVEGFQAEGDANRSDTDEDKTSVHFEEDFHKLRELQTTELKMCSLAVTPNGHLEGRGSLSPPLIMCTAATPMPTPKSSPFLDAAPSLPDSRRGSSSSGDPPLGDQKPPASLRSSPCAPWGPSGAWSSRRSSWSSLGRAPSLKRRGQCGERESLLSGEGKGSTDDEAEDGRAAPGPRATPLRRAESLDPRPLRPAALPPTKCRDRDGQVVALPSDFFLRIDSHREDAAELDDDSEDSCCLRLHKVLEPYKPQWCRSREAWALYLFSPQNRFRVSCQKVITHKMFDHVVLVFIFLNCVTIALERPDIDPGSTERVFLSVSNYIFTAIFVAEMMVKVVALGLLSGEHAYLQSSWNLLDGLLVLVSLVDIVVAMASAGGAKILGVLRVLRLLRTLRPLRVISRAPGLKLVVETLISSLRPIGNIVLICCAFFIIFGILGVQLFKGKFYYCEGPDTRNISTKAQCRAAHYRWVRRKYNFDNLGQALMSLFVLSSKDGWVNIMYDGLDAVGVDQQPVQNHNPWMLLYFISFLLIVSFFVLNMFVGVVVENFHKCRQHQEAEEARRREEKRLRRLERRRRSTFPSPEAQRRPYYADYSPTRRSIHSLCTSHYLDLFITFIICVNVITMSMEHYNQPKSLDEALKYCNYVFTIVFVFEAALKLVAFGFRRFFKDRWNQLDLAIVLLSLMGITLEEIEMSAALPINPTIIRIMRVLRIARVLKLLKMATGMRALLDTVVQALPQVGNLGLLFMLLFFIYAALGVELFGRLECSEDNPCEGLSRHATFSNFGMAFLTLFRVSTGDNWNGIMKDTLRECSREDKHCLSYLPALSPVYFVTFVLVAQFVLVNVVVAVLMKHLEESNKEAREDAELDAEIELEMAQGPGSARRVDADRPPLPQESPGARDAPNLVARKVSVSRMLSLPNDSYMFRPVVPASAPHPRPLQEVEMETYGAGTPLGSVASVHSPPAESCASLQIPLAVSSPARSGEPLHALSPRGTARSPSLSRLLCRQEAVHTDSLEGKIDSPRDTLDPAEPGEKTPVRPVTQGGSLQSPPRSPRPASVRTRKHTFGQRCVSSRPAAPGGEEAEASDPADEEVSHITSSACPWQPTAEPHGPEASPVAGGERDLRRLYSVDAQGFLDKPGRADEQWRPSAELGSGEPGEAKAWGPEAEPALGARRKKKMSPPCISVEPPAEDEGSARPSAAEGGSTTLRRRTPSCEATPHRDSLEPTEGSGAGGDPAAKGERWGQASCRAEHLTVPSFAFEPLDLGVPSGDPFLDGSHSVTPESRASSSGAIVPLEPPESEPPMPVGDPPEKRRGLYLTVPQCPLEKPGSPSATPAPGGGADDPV
# Format: functional
Activity calls are given as the source filed them.

Lookup result for O=C(C1CCCN(S(=O)(=O)Cc2ccccc2)C1)N1CCC(Cc2ccccc2)CC1 (stereo unspecified) ; measured EC50: 4.73 µM (active)

Lookup result for O=C1c2ccccc2C(Nc2ccc(F)c(Cl)c2)N1Cc1ccco1 (stereo unspecified) ; measured EC50: 3.88 µM (active)

Lookup result for O=C(Nc1ccc2c(c1)CCC2)c1cccc(S(=O)(=O)N2CCN(c3ccccc3)CC2)c1 ; measured EC50: 6.08 µM (active)

Lookup result for CN(CCOc1ccc(Cl)cc1)c1ccc(S(=O)(=O)N2CCCCC2)cn1 ; measured EC50: 2.82 µM (active)

Lookup result for Cc1ccc(-c2nc3ccccn3c2NCc2ccc3c(c2)OCO3)cc1 ; measured EC50: 12.8 µM (active)

Lookup result for Cc1cccc(COCC(Cc2ccccc2)N2CCN(C(=O)c3cc(Cl)cc(Cl)c3)CCC2=O)c1 (stereo unspecified) ; measured EC50: 3.04 µM (active)

----------
Provide the recorded AC50 for the entries that follow.
# System: INS1
# Assay Remarks: INS-1E survival protection against cytokine death – cell-based, luminescence, retest, dose response (AID 449756);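 also: cell death triggered by IL-1 beta plus TNF-alpha plus IFN-gamma mixture; protective hits raise ATP signal compared with cytokine alone wells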
# Format: functional
# Experimental Parameters: Rattus norvegicus
The source made the active and inactive calls.

Lookup result for Cc1ccc(C)c(S(=O)(=O)N2CCN(c3ncnc4sccc34)CC2)c1 ; measured AC50: 3.41 µM (active)

Lookup result for N=c1c2c(n(Cc3ccc(Cl)cc3Cl)c3c1CCC3)CCCC2 ; measured AC50: 3.58 µM (active)

Lookup result for COc1ccc2nc(C)cc(N/N=C/c3ccccc3)c2c1 ; measured AC50: 2.68 µM (active)

Lookup result for O=C(c1cccnc1)N(c1cc2sc(=O)oc2c2ccccc12)S(=O)(=O)c1ccccc1 ; measured AC50: 6.65 µM (active)

----------
Provide the recorded AC50 for the entries that follow.

# value of AC50, Cytochrome P450 2D6 (Homo sapiens, UniProt P10635), item CN1CCN(CC(=O)N2c3ccccc3Sc3cc4ccccc4cc32)CC1 = 3.16 µM (inconclusive)

# value of AC50, Cytochrome P450 2D6 (Homo sapiens, UniProt P10635), item C/C(=N\O)c1cccc[n+]1Cc1ccccc1 = 3.98 µM (inconclusive)

# value of AC50, Cytochrome P450 2D6 (Homo sapiens, UniProt P10635), item CN1CCN(c2ncncc2-c2cccnc2)CC1 = 2.51 µM (inconclusive)

# value of AC50, Cytochrome P450 2D6 (Homo sapiens, UniProt P10635), item O=C(CSC1CC(=O)N(CC(c2ccccc2)c2ccccc2)C1=O)Nc1ccc(Cl)cc1 (configuration not stated) = 2 µM (inconclusive)

# value of AC50, Cytochrome P450 2D6 (Homo sapiens, UniProt P10635), item O=C(Nc1cccc2ncccc12)c1ccc(-c2ccc(Br)cc2)o1 = 12.6 µM (inconclusive)

# value of AC50, Cytochrome P450 2D6 (Homo sapiens, UniProt P10635), item CC(C)NC(=O)N1CC2(CCN(C(=O)c3ccco3)CC2)C1 = 12.6 µM (inconclusive)

# value of AC50, Cytochrome P450 2D6 (Homo sapiens, UniProt P10635), item CS(=O)(=O)Nc1cccc(-c2cc(NCc3cccs3)ncn2)c1 = 20 µM (inconclusive)

# value of AC50, Cytochrome P450 2D6 (Homo sapiens, UniProt P10635), item COc1ccc2[nH]cc(CCNc3nc(-c4ccccc4CN(C)C)nc4ccccc34)c2c1 = 31.6 µM (inconclusive)

# value of AC50, Cytochrome P450 2D6 (Homo sapiens, UniProt P10635), item O=[N+]([O-])c1ccc(S(=O)(=O)Cc2ccccc2)c2nonc12 = 6.31 µM (inconclusive)

# value of AC50, Cytochrome P450 2D6 (Homo sapiens, UniProt P10635), item CC(C)C(=O)N1CCN(c2ccccc2NC(=O)c2cccc(Cl)c2)CC1 = 15.8 µM (inconclusive)

# value of AC50, Cytochrome P450 2D6 (Homo sapiens, UniProt P10635), item COCCNc1ncnc2ccc(-c3cccc(OC)c3)cc12 = 39.8 µM (inconclusive)

# value of AC50, Cytochrome P450 2D6 (Homo sapiens, UniProt P10635), item COc1ncc2nc(-c3cccc(C#N)c3)c(=O)n(CCC#N)c2n1 = 15.8 µM (inconclusive)

----------
Provide the recorded IC50 for the entries that follow.
# Assay Target: UniProt:P11940
# Sequence (P11940 whole entry, the tested form may be a part): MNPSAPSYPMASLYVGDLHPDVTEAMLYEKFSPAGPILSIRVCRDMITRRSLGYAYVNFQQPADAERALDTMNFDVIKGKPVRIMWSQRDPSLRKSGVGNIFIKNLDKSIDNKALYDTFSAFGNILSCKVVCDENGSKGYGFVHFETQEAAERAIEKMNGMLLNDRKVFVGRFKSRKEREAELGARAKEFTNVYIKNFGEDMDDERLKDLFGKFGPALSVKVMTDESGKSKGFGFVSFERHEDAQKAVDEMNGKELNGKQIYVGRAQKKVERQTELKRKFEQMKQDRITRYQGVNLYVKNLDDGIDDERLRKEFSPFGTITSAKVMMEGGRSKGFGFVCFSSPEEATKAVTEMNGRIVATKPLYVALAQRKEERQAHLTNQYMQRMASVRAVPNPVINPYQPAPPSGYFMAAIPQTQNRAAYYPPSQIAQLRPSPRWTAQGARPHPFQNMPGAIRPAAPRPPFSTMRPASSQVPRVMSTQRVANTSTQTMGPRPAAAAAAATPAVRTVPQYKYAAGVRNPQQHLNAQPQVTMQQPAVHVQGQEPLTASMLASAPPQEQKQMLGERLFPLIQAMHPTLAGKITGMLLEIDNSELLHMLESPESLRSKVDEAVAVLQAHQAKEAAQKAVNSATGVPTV
# Assay Remarks: MLLE domain peptide-binding blockers, IC50 – biochemical, fluorescence polarization, FITC-PAM2 peptide, dose response (AID 602259)
# Format: functional
# Experimental Parameters: read-out: IC50_Mean
Calls of active or inactive are those of the source.

# value of IC50, UniProt:P11940, item COc1ccc(C2CC(c3cccs3)=Nc3ccccc3S2)cc1 (stereo unspecified) = > 66 µM (inactive)

# value of IC50, UniProt:P11940, item CC(=O)c1cc(-c2ccccc2)[nH]c1N1CCOCC1 = > 66 µM (inactive)

# value of IC50, UniProt:P11940, item Sc1nnc2c3ccccc3n(CCc3ccccc3)c2n1 = > 66 µM (inactive)

# value of IC50, UniProt:P11940, item COc1cc(/C=C/C(=O)Nc2nnc(C(C)(C)C)s2)cc(OC)c1OC = > 66 µM (inactive)

# value of IC50, UniProt:P11940, item CCOC(=O)CCCCC(=O)c1[nH]c(O)nc1CSc1nc(O)c(C#N)c(-c2ccccc2)n1 = > 66 µM (inactive)

# value of IC50, UniProt:P11940, item COc1ccc(Cc2c(C(C)(C)C)nc3c(C)cc(Br)cn23)c(C)c1 = 52.7 µM (inactive)

----------
# Assay Target: Sentrin-specific protease 8 (Homo sapiens, UniProt Q96LD8);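 also: luminescence read-out of SENP8 inhibition, dose-response confirmation following an ultra-high-throughput screen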
# Sequence (Q96LD8 whole entry): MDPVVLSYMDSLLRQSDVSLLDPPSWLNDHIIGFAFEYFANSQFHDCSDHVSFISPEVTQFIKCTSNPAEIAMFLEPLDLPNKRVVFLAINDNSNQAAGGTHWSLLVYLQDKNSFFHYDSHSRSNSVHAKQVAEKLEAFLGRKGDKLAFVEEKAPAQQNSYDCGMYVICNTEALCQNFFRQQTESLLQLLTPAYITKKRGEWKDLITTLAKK
# Format: functional
Active and inactive are the calls of the source.
The reply should name one outcome from 1 (yes) (active), 0 (no) (inactive)

[Q] # fetch the recorded call for CCCNC(=O)c1c(N)n(CC2CCCO2)c2nc3ccccc3nc12 (configuration not stated) here
[A] 1 (yes)

[Q] # fetch the recorded call for Cc1ccc(Oc2cc(-n3nc(C)cc3C)ncn2)cc1 here
[A] 1 (yes)

[Q] # fetch the recorded call for Cc1cc([N+](=O)[O-])cc(/C=N\NC(=O)C2COc3ccccc3O2)c1O (configuration not stated) here
[A] 1 (yes)

[Q] # fetch the recorded call for N=c1oc2ccccc2cc1C(=O)Nc1ccccc1 here
[A] 0 (no)

[Q] # fetch the recorded call for c1ccc(-c2nc(C3CCCCC3)no2)cc1 here
[A] 0 (no)

[Q] # fetch the recorded call for O=C(Oc1ccc2ccccc2c1Cl)N1CCCCCC1 here
[A] 1 (yes)

[Q] # fetch the recorded call for CC(C)(C)c1cc[n+](C2=C([N-]S(=O)(=O)c3cccs3)C(=O)c3ccccc3C2=O)cc1 here
[A] 1 (yes)

----------
# Assay Remarks: NIH-3T3 fibroblast cytotoxicity, dose response, cytotoxicity control, cell-based, fluorescence, Alamar Blue, secondary assay (AID 2327);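 also: NIH-3T3 mouse fibroblasts cultured with fluconazole at 8 µg/mL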
# Type: functional
Activity calls are given as the source filed them.
The reply should name one outcome from active, inactive

[Q] # fetch the recorded call for OCCN1CCN(C(S)=NC2CCCC2)CC1 here
[A] active

[Q] # fetch the recorded call for O=[N+]([O-])c1cc(S(=O)(=O)C(F)(F)F)ccc1Sc1nc2ccccc2s1 here
[A] active

[Q] # fetch the recorded call for O=C1c2ccccc2NC(c2c[nH]nc2-c2ccc(Cl)cc2)N1O (stereo not given) here
[A] inactive

[Q] # fetch the recorded call for Clc1ccc(OCCN2CCN(c3ncnc4sccc34)CC2)cc1 here
[A] inactive

----------
# Assay Target: Zinc finger protein mex-5 (Caenorhabditis elegans)
# Sequence (Q9XUB2 whole entry): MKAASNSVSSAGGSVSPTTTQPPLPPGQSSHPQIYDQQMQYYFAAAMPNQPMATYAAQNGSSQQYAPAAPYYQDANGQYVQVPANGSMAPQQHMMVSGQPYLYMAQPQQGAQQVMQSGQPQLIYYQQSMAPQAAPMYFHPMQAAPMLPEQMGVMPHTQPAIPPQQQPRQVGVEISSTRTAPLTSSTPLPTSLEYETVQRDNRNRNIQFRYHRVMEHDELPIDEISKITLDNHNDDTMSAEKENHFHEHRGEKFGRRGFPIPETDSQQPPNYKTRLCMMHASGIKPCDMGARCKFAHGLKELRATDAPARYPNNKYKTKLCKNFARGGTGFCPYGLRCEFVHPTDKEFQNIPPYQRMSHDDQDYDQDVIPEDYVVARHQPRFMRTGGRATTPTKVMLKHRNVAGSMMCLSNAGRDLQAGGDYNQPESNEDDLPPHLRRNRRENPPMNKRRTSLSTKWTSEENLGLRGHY
# Assay Remarks: potency of MEX-5 RNA-binding blockers – biochemical, C. elegans, fluorescence polarization, dose response (AID 1960)
Calls of active or inactive are those of the source.
Provide the recorded EC50 for the entries that follow.

Lookup result for CCN(CC)CCN/C=C1\C(=O)NC(=O)N(CCc2ccccc2)C1=O ; measured EC50: > 300 µM (not active)

Lookup result for Cc1ccccc1C1=N/C(=C/c2cccs2)C(=O)O1 ; measured EC50: 39.1 µM (active)

Lookup result for CCn1c(/C=C/c2c(C)[nH]c3ccccc23)nc2ccccc2c1=O ; measured EC50: > 300 µM (inconclusive)

Lookup result for CCN1C(=O)NC(=O)/C(=C\c2cn(CC(=O)O)c3ccccc23)C1=O ; measured EC50: > 300 µM (not active)

Lookup result for Cc1oc(/N=C/c2ccc(O)cc2O)c(C#N)c1C ; measured EC50: > 300 µM (not active)

Lookup result for Cc1cc(NS(=O)(=O)c2ccc(Nc3nc(-c4sc(N)nc4C)cs3)cc2)no1 ; measured EC50: 7.76 µM (active)

Lookup result for COc1cccc2c1NC(C(=O)O)C1CC=CC21 (configuration not stated) ; measured EC50: 8.25 µM (active)

Lookup result for Cn1c(=O)c2nc(N/N=C(/C#N)C(N)=O)[nH]c2n(C)c1=O ; measured EC50: 52.4 µM (active)

Lookup result for COC(=O)C1=C(C)N(Cc2ccccc2)C(=NCC(C)C)N[C@H]1c1ccccc1 ; measured EC50: 42.7 µM (active)

Lookup result for CC1=Nc2ccccc2/C1=C\c1nc(-c2ccc(F)cc2)oc1O ; measured EC50: 5.53 µM (active)

Lookup result for Cc1n[nH]c(S/C(=C/c2ccc(-c3ccc(C(=O)O)cc3)o2)C(=O)O)n1 ; measured EC50: 1.45 µM (active)

Lookup result for CCOC(=O)c1cc(-c2ccc(/C=C3/C(=O)NC(=O)C(C#N)=C3C)o2)ccc1Cl ; measured EC50: 17.4 µM (active)
